target: CaSla1-D3
testMethodNotes: SPOT peptide array binding signal intensity (averaged, normalized) (arbitrary units (background-subtracted, floor 0; scale differs between SH3 domains)); higher = stronger binding of the SH3 domain to the peptide
// 0 strictly below 80 in SPOT peptide array binding signal intensity; 1 otherwise

- KNPRRQLQIPRQQPS: 0
- RKLRTVPGVPLIHLT: 0
- TKFRISLGLPVGAIM: 1
- VATSTSPKLPPRGKQ: 0
- NLDRSKISLPDFDDE: 0
- RKNRAPPQRPRFNRD: 0
- RNNRPVPPPPPMRTT: 1
- NPTKSPPPPPSPSTM: 0
- PVLPPPRSPNRPTLS: 0
- VQPTAAPATPPRHIS: 0
- QPWTDQFEKLEKEVS: 0
- NGRRRPKFRVQLSGN: 1
- QLMKNLPKIPLLNDI: 1
- VDFTLPPPPPPPGLD: 0
- PELAPKREAPKPPAN: 0
